# System: Human BCL-XL protein (N-terminal HiBiT tagged BCL-XL in HT1080 cells) (Homo sapiens)
# Construct: expressed in transfected cells; host or cells: HT-1080 (ATCC CCL-121), stably transduced with lentivirus pLV-UBC-N-HiBiT-BCL-XL-PGK-puro and selected with puromycin
# Sequence (Q07817 whole entry): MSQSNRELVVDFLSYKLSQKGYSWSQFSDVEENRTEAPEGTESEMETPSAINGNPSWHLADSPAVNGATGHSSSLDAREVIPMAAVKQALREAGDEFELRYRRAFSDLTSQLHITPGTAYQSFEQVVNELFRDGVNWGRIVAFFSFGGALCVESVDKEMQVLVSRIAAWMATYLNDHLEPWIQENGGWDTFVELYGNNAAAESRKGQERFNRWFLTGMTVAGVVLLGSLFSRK
# Experimental protocol: HiBiT based degradation assay
# Assay type: cell-based
# Test context: BCL-XL degradation normalized with DMSO control; HT1080 cells expressing HiBiT-BCL-XL; 24 h
Property name: Ymin (24 h)

Here is how some molecules turned out for Ymin (24 h).
[
  {
    "Molecule": "Cn1nc(C2CCC(=O)NC2=O)c2ccc(NC(=O)CN3CCC(CCCOc4cccc(-c5ccc(N6CCc7cccc(C(=O)Nc8nc9ccccc9s8)c7C6)nc5C(=O)O)c4)CC3)cc21 (stereo not drawn) [Compound 314]",
    "System": "Human BCL-XL protein (N-terminal HiBiT tagged BCL-XL in HT1080 cells) (Homo sapiens)",
    "Ymin (24 h)": "B (50% ≤ Ymin < 70%)"
  },
  {
    "Molecule": "Cc1c(OC[C@H]2CCC3(CCN(CC(=O)Nc4ccc5c(C6CCC(=O)NC6=O)nn(C)c5c4)CC3)C2)cccc1-c1ccc(N2CCc3cccc(C(=O)Nc4nc5ccccc5s4)c3C2)nc1C(=O)O (single isomer, unassigned) [Compound 262a]",
    "System": "Human BCL-XL protein (N-terminal HiBiT tagged BCL-XL in HT1080 cells) (Homo sapiens)",
    "Ymin (24 h)": "A (Ymin < 50%)"
  },
  {
    "Molecule": "Cc1c(OCC[C@@H]2CC23CCN(CC(=O)Nc2ccc4c(C5CCC(=O)NC5=O)nn(C)c4c2)CC3)cccc1-c1ccc(N2CCc3cccc(C(=O)Nc4nc5ccccc5s4)c3C2)nc1C(=O)O (single isomer, unassigned) [Compound 289a]",
    "System": "Human BCL-XL protein (N-terminal HiBiT tagged BCL-XL in HT1080 cells) (Homo sapiens)",
    "Ymin (24 h)": "A (Ymin < 50%)"
  },
  {
    "Molecule": "Cc1c(OCCC[C@H]2CCCN(CC(=O)Nc3cccc4c(C5CCC(=O)NC5=O)nn(C)c34)C2)cccc1-c1ccc(N2CCc3cccc(C(=O)Nc4nc5ccccc5s4)c3C2)nc1C(=O)O (single isomer, unassigned) [Compound 210b]",
    "System": "Human BCL-XL protein (N-terminal HiBiT tagged BCL-XL in HT1080 cells) (Homo sapiens)",
    "Ymin (24 h)": "C (Ymin ≥ 70%)"
  },
  {
    "Molecule": "Cc1c(OCCCC2CCN(CC(=O)N3CCN(c4ccc5c(C6CCC(=O)NC6=O)nn(C)c5c4)CC3)CC2)cccc1-c1ccc(N2CCc3cccc(C(=O)Nc4nc5ccccc5s4)c3C2)nc1C(=O)O (stereo not drawn) [Compound 142]",
    "System": "Human BCL-XL protein (N-terminal HiBiT tagged BCL-XL in HT1080 cells) (Homo sapiens)",
    "Ymin (24 h)": "A (Ymin < 50%)"
  }
]

Exercise: Name the reported Ymin (24 h) value associated with the molecule Cc1c(O[C@H]2CC[C@H](CCCCN3CC[C@H](c4ccc5c(C6CCC(=O)NC6=O)nn(C)c5c4)C3)CC2)cccc1-c1ccc(N2CCc3cccc(C(=O)Nc4nc5ccccc5s4)c3C2)nc1C(=O)O (single isomer, unassigned) [Compound 332a]
Key: A (Ymin < 50%)

Exercise: Ok, now Cc1c(OCCC[C@@H]2CCN(CC(=O)Nc3ccc4c(C5CCC(=O)NC5=O)nn(C)c4c3)CC2(F)F)cccc1-c1ccc(N2CCc3cccc(C(=O)Nc4nc5ccccc5s4)c3C2)nc1C(=O)O (stereo partly drawn) [Compound 193a]
Key: B (50% ≤ Ymin < 70%)

Exercise: Ok, now Cc1c(O[C@H]2CC[C@H](CCCN3CCN(c4cccc5c(C6CCC(=O)NC6=O)nn(C)c45)[C@@H](C)C3)CC2)cccc1-c1ccc(N2CCc3cccc(C(=O)Nc4nc5ccccc5s4)c3C2)nc1C(=O)O (stereo partly drawn) [Compound 274b]
Key: A (Ymin < 50%)

Exercise: Ok, now Cc1c(OCCO[C@H]2C[C@H]3CC[C@@H](C2)N3CC(=O)Nc2cccc3c(C4CCC(=O)NC4=O)nn(C)c23)cccc1-c1ccc(N2CCc3cccc(C(=O)Nc4nc5ccccc5s4)c3C2)nc1C(=O)O (stereo partly drawn) [Compound 224b]
Key: B (50% ≤ Ymin < 70%)

Exercise: Ok, now Cc1c(OCCCN2CCN(CC(=O)Nc3ccc4c(C5CCC(=O)NC5=O)nn(C)c4c3)C[C@@H]2C(F)(F)F)cccc1-c1ccc(N2CCc3cccc(C(=O)Nc4nc5ccccc5s4)c3C2)nc1C(=O)O (stereo partly drawn) [Compound 245a]
Key: B (50% ≤ Ymin < 70%)
